Data provenance is patent US20130266566A1.

target: active human PAI-1, recombinant, wild-type, non-glycosylated (E. coli) (human, UniProt P05121 24-402); experiment: cell-based or functional assay
Sequence (P05121 24-402): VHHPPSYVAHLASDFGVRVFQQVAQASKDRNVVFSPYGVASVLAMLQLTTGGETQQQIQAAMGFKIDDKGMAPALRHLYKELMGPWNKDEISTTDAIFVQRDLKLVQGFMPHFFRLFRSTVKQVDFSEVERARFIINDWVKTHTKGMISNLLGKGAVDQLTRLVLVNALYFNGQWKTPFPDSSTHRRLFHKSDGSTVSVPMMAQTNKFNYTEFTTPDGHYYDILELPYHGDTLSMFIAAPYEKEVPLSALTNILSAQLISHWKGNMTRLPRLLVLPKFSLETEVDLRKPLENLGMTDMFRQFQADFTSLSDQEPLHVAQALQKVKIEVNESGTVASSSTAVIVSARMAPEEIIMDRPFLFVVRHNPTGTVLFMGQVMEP
experimental-endpoint: Chromogenic (IC50 in nM) human
Give bare numbers, in nM.

Example results:
Antibody 03 scFv (scFv) QVQLQQSGAEVKKPGSSVKVSCKASGGTFSSYAISWVRQAPGQGLEWMGGIIPTFGTANYAQKFQGRVTITADESTSTAYMELSGLRSEDTAVYYCAREKRQWLEGHFDYWGRGTPVTVSSDIQMTQSPSFLSASIGDRVTITCRASEGIYRSLAWYQQKPGKAPKLLIYKASSLASGAPSRFSGSGSGTDFTLTISGLQPDDFATYYCQQYSNYPLTFGGGTKLEIK: 1.8
Antibody 19 scFv (scFv) QVQLQQSGAEVKKPGSSVKVSCKASGGTFSSYAISWVRQAPGQGLEWMGGIIPIFDTANYAQKFQGRVTITADESTSTAYMELSGLRSEDTAVYYCARERRQWLEGHFDYWGRGTPVTVSSDIRMTQSPSFLSASIGDRVTITCRASEGIYHELAWYQQKPGKAPKLLIYRASSLASGAPSRFSGSGSGTEFTLTISSLQPDDFATYYCQQYSNYPLTFGGGTKLEIK: 26
Antibody 21 scFv (scFv) PVQLQQSGAEVKKPGSSVKVSCKASGGTFSSYAISWVRQAPGQGLEWMGGIIPTFGTANYAQKFQGRVTITADESTSTAYMELSGLRSEDTAVYYCAREKRQWLEGHFDYWGRGTPVTVSSDIQMAQSPSFLSASIGDRVTITCRASEGIYHNLAWYQQKPGKAPKLLIYRASSLASGAPSRFSGSGSGTDFTLTISSLQPDDFATYYCQQYSNYPLTFGGGTKLEIK: 4.1
Antibody 06 scFv (scFv) QVQLQQSGAEVKKPGSSVKVSCKASGGTFSSYAISWVRQAPGQGLEWMGGIIPTFGTANYAQKFQGRVTITADESTSTAYMELSGLRSEDTAVYYCAREKRQWLEGHFDYWGRGTPVTVSSDIQMTQSPSFLSASIGDRVTITCRASEGIYHELAWYQQKPGKAPKLLIYRASSLASGAPSRFSGSGSGTDFTLTISSLQPDDFATYYCQQYSNYPLTFGRGTKLEIK: 74.6
Antibody 02 scFv (scFv) QVQLVQSGAEVKKPGSSVKVSCKASGGTFSSYAISWVRQAPGQGLEWMGGIIPTFGTANYAQKFQGRVTITADESTSTAYMELSSLRSEDTAVYYCAREKRQWLEGHFDYWGRGTLVTVSSDIQMTQSPSTLSASVGDRVTITCRASEGIYHSLAWYQQKPGKAPKLLIYKASSLASGVPSRFSGSGSGTEFTLTISSLQPDDFATYYCQQYSDYPLTFGGGTKVEIK: 0.6
Antibody 10 scFv (scFv) QVQLQQSGAEVKKPGSSVKVSCKASGGTFSSYAISWVRQAPGQGLEWMGGIIPTFGTANYAQKFQGRVTITADESTSTAYMELSSLRSEDTAVYYCAREKRQWLEGHFDYWGRGTPVTVSSDIQMTQSPSFLSASIGDRVAITCRASEGIYHSLAWYQQKPGKAPKLLIYRASSLASGAPSRFSGSGSGTDFTLTISSLQPDDFATYYCQQYSNYPLTFGGGTRLEIK: 2.2
Antibody 13 scFv (scFv) QVQLQQSGAEVKKPGSSVKVSCKASGGTFSSYAISWVRQAPGQGLEWMGGIIPTFGTANYAQKFQGRVTITADESTSTAYMELSDLRSEDTAVYYCAREKRQWLEGHFDYWGRGTPVTVSSDIQMTQSPSFLSASIGDRVTITCRASEGIYHSLAWYQQKPGKAPKLLIYRASSLASGAPSRFSGSGSGTDFTLTISSLQPDDFATYYCQQYSNYPLTFGGGTKLEIK: 2.9
Antibody 05 scFv (scFv) QVQLQQSGAEVKKPGSSVKVSCKASGGTFSSYAISWVRQAPGQGLEWMGGIIPTFSTANYAQKFRGRVTITADESTSTAYMELSGLRSEDTAVYYCAREKRQWLEGHFDYWGRGTPVTVSSDIQMTQSPSFLSASIGDRVTITCRASEGIYHQLAWYQQKPGKAPKLLIYRASSLASGAPSRFSGSGSGTDFTLTISSLQPDDFATYYCQQYSNYPLTFGGGTKLEIK: 5
Antibody 25 scFv (scFv) QVQLQQSGAEVKKPGSSVKVSCKASGGTFSSYAISWVRQAPGQGLEWMGGIIPTFGTANYAQKFQGRVTITADESTSTAYMELSGLRSEDTAVYYCARERRQWLEGHFDYWGQGTPVTVSSDIQMTQSPSFLSASIGDRVTITCRASESIYHELAWYQQKPGKAPKLLIYKASSLASGAPSRFSGSGSGTAFTLTISSLQPDDFATYYCQQYSNYPLTFGGGTKLEIK: 13.1

In: Quick one: Chromogenic (IC50 in nM) human for Antibody 26 scFv (scFv) QVQLQQSGAEVKKPGTSVKVSCKASGGTFSSYAISWVRQAPGQGLEWMGGIIPIFGTANYAQKFQGRVTITADESTSTAYMELSSLRSEDTAVYYCAREKRQWLEGHFDYWGRGTPVTVSSDIQMTQSPSFLSASIGDRVTITCRASEGIYHTLAWYQQKPGKAPKLLIYRASSLASGAPSRFSGSGSGTDFTLTISSLQPDDFATYYCQQYSNYPLTFGGGTKLEIK ?
Out: 4
